- Tested on: NB1 (Neuroblastoma)
- experimental_details: combination Emax (second highest fraction inhibited in the dose matrix, 72 h); higher = more inhibition; extreme values may be limits of the assay

{"molecule": "CS(=O)(=O)CCNCc1ccc(-c2ccc3ncnc(Nc4ccc(OCc5cccc(F)c5)c(Cl)c4)c3c2)o1 [Lapatinib] + C[C@@H](Oc1cc(-c2cnn(C3CCNCC3)c2)cnc1N)c1c(Cl)ccc(F)c1Cl [Crizotinib] (first compound max 10 µM, 7x7, partner max 10 µM)", "combination Emax": 0.965}
{"molecule": "Cn1cnc2c(F)c(Nc3ccc(Br)cc3Cl)c(C(=O)NOCCO)cc21 [Selumetinib] + CC(C)n1c(=O)n(C)c2cnc3cc(F)c(-c4ccc(OCCCN5CCCCC5)nc4)cc3c21 [AZD1390] (first compound max 10 µM, 7x7, partner max 0.3 µM)", "combination Emax": 0.127}
{"molecule": "NC1(C(=O)N[C@@H](CCO)c2ccc(Cl)cc2)CCN(c2ncnc3[nH]ccc23)CC1 [Capivasertib] + C[C@@H]1COCCN1C2=NC(=NC(=C2)C3(CC3)[S@](=N)(=O)C)C4=C5C=CNC5=NC=C4 [AZD6738] (first compound max 10 µM, 7x7, partner max 10 µM)", "combination Emax": 0.853}
{"molecule": "Cc1nc(Nc2ncc(C(=O)Nc3c(C)cccc3Cl)s2)cc(N2CCN(CCO)CC2)n1 [Dasatinib] + CC(=O)Nc1cccc(-n2c(=O)n(C3CC3)c(=O)c3c(Nc4ccc(I)cc4F)n(C)c(=O)c(C)c32)c1 [Trametinib] (first compound max 2 µM, 7x7, partner max 1 µM)", "combination Emax": 0.139}
{"molecule": "COc1cc2ncnc(Nc3ccc(F)c(Cl)c3)c2cc1OCCCN1CCOCC1 [Gefitinib] + CC(C)n1c(=O)n(C)c2cnc3cc(F)c(-c4ccc(OCCCN5CCCCC5)nc4)cc3c21 [AZD1390] (first compound max 10 µM, 7x7, partner max 0.3 µM)", "combination Emax": 0.0869}
{"molecule": "Cc1c2c(nn1C)CSCc1cc(n(C)n1)CSc1cc(c3ccccc3c1)OCCCc1c(C(=O)O)n(C)c3c-2c(Cl)ccc13 [AZD5991] + C[C@@H](Nc1cc(F)cc(F)c1)c1cc(C(=O)N(C)C)cc2c(=O)cc(N3CCOCC3)oc12 [AZD8186] (first compound max 1 µM, 7x7, partner max 3 µM)", "combination Emax": 0.26}
{"molecule": "CN(CCO)CC[C@H](CSc1ccccc1)Nc1ccc(S(=O)(=O)NC(=O)c2ccc(N3CCC([C@@H](O)c4ccccc4-c4ccc(Cl)cc4)CC3)cc2)cc1S(=O)(=O)C(F)(F)F [AZD4320] + C1CN(CCC1(C(=O)N[C@@H](CCO)C2=CC=C(C=C2)Cl)N)C3=NC=NC4=C3C=CN4 [Capivasertib] (first compound max 1 µM, 7x7, partner max 3 µM)", "combination Emax": 0.689}
{"molecule": "C=CCn1c(=O)c2cnc(Nc3ccc(N4CCN(C)CC4)cc3)nc2n1-c1cccc(C(C)(C)O)n1 [AZD1775] + C1CN(CCC1(C(=O)N[C@@H](CCO)C2=CC=C(C=C2)Cl)N)C3=NC=NC4=C3C=CN4 [Capivasertib] (first compound max 3 µM, partner max 3 µM)", "combination Emax": 0.69}
{"molecule": "COc1cccc(OCCCN)c1-c1cc(Nc2cnc(C#N)cn2)n[nH]1 [Prexasertib] + O=C(c1cc(Cc2n[nH]c(=O)c3ccccc23)ccc1F)N1CCN(C(=O)C2CC2)CC1 [Olaparib] (first compound max 1 µM, 7x7, partner max 10 µM)", "combination Emax": 0.561}
{"molecule": "CN(C)CCCOc1ccc(-c2ccc3ncc4c(c3c2)n(C2CCOCC2)c(=O)n4C)cn1 [AZD0156] + CCN(CCO)CCCOc1ccc2c(Nc3cc(CC(=O)Nc4cccc(F)c4)[nH]n3)ncnc2c1 [AZD2811] (first compound max 1 µM, 7x7, partner max 1 µM)", "combination Emax": 0.641}
{"molecule": "C=CCn1c(=O)c2cnc(Nc3ccc(N4CCN(C)CC4)cc3)nc2n1-c1cccc(C(C)(C)O)n1 [AZD1775] + O=C(c1cc(Cc2n[nH]c(=O)c3ccccc23)ccc1F)N1CCN(C(=O)C2CC2)CC1 [Olaparib] (first compound max 1 µM, partner max 10 µM)", "combination Emax": 0.819}
{"molecule": "CN(CCO)CC[C@H](CSc1ccccc1)Nc1ccc(S(=O)(=O)NC(=O)c2ccc(N3CCC([C@@H](O)c4ccccc4-c4ccc(Cl)cc4)CC3)cc2)cc1S(=O)(=O)C(F)(F)F [AZD4320] + CCN(CCO)CCCOc1ccc2c(Nc3cc(CC(=O)Nc4cccc(F)c4)[nH]n3)ncnc2c1 [AZD2811] (first compound max 1 µM, 7x7, partner max 1 µM)", "combination Emax": 0.684}
{"molecule": "NC1(C(=O)N[C@@H](CCO)c2ccc(Cl)cc2)CCN(c2ncnc3[nH]ccc23)CC1 [Capivasertib] + COc1nnc2ccc(N3CCC(c4ccc(OCCN5CCN(C)C(=O)[C@H]5C)cc4)CC3)nn12 [AZD5153] (first compound max 10 µM, 7x7, partner max 1 µM)", "combination Emax": 0.885}
{"molecule": "CN(CCO)CC[C@H](CSc1ccccc1)Nc1ccc(S(=O)(=O)NC(=O)c2ccc(N3CCC([C@@H](O)c4ccccc4-c4ccc(Cl)cc4)CC3)cc2)cc1S(=O)(=O)C(F)(F)F [AZD4320] + C[C@@H](Nc1cc(F)cc(F)c1)c1cc(C(=O)N(C)C)cc2c(=O)cc(N3CCOCC3)oc12 [AZD8186] (first compound max 1 µM, 7x7, partner max 3 µM)", "combination Emax": 0.651}
{"molecule": "Cc1c2c(nn1C)CSCc1cc(n(C)n1)CSc1cc(c3ccccc3c1)OCCCc1c(C(=O)O)n(C)c3c-2c(Cl)ccc13 [AZD5991] + CCN(CCO)CCCOc1ccc2c(Nc3cc(CC(=O)Nc4cccc(F)c4)[nH]n3)ncnc2c1 [AZD2811] (first compound max 1 µM, 7x7, partner max 1 µM)", "combination Emax": 0.694}
